# target: Proto-oncogene tyrosine-protein kinase receptor Ret (Homo sapiens)
# Sequence (P07949 whole entry): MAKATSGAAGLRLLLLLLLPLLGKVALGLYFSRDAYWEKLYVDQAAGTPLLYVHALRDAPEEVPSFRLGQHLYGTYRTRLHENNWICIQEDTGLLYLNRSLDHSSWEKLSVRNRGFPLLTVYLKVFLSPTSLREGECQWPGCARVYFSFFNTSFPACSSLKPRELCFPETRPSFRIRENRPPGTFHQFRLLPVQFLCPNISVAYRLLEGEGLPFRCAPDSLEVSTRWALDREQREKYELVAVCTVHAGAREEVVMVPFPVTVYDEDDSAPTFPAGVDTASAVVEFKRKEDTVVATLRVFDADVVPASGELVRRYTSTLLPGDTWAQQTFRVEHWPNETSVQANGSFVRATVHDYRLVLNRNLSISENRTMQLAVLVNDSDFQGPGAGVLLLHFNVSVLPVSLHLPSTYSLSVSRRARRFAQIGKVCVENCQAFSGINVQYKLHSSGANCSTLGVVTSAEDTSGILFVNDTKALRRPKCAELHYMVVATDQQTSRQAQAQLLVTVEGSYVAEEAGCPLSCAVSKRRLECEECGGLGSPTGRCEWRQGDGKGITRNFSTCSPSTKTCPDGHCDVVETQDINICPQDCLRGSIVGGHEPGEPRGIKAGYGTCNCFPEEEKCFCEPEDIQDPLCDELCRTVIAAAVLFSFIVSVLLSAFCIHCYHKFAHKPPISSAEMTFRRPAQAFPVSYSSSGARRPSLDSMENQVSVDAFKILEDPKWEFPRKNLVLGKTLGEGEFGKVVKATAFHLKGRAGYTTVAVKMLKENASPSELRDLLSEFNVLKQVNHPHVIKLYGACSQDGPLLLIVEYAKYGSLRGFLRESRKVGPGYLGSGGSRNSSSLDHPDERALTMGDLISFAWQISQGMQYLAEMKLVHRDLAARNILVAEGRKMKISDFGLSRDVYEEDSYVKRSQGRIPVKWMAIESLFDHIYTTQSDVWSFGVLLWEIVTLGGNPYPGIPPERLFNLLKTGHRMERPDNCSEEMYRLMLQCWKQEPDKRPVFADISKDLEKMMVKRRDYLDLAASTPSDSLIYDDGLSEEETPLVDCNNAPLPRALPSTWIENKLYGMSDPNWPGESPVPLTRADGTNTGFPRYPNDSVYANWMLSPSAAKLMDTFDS
Threshold check on IC50: strictly below 10 nM is condition met; on or above 10 nM is condition not met.

smilesStructure	cat
Cc1ccc(C(=O)Nc2ccc(CN3CCN(C)CC3)c(C(F)(F)F)c2)cc1-c1noc(-c2cccnc2)n1	condition not met
CN1CCN(Cc2ccc(NC(=O)c3ccc(Cl)c(-c4cnc(-c5cccnc5)o4)c3)cc2C(F)(F)F)CC1	condition not met
CN1CCN(Cc2ccc(NC(=O)c3ccc(Cl)c(-c4noc(-c5cncc(-c6cnn(C)c6)c5)n4)c3)cc2C(F)(F)F)CC1	condition met
CN1CCN(Cc2ccc(NC(=O)c3cccc(-c4noc(-c5cccnc5)n4)c3)cc2C(F)(F)F)CC1	condition not met
CN1CCN(Cc2ccc(NC(=O)c3ccc(Cl)c(-c4nc(-c5cccnc5)no4)c3)cc2C(F)(F)F)CC1	condition not met

Data provenance is ChEMBL document CHEMBL3867468.
